System: CP269
Assay: qHTS profiling for inhibitors of Plasmodium falciparum proliferation (AID 504749); also: nearly all actives have a fitted effect of over 60% in size; also: potency is read from the fitted curve at half-maximal effect
Conditions: P. falciparum in erythrocytes, SYBR Green DNA, 72 h; series mostly up to 28.7 µM
Records with an inconclusive call do not appear. Activity calls are given as the source filed them. Calls follow the shape of the dose curve; as a rule, active = well fitted inhibition curve with a large enough effect; inconclusive = small, poorly fitted or top-dose-only effect; inactive = flat fitted curve, though single readings scatter.
result-type: Potency

Look over these answered cases.
>>> measurement("CCCc1ccc(C(=O)O)cc1")
"inactive"
>>> measurement("CC1=CC(=C(c2ccc(N)cc2)c2ccc(N)cc2)C=CC1=N")
"4.26 µM (active)"
>>> measurement("Cn1cc(NC(=O)c2cc(NC(=O)c3cc(NC=O)cn3C)cn2C)cc1C(=O)NCCC(=N)N")
"7.57 µM (active)"
>>> measurement("CCC(O)c1ccccc1 (stereo unspecified)")
"inactive"
>>> measurement("CC(=O)Nc1c(I)c(C(=O)O)c(I)c(N(C)C(C)=O)c1I")
"inactive"

Please report the measured Potency for CC(C)(Oc1ccc(C2CCCc3ccccc32)cc1)C(=O)O (stereo unspecified) inactive

---

System: PC15
Experiment: qHTS profiling for inhibitors of Plasmodium falciparum proliferation (AID 504749); also: nearly all actives have a fitted effect of over 60% in size
Details: P. falciparum in erythrocytes, SYBR Green DNA, 72 h; series mostly up to 28.7 µM
Inconclusive results are not listed. Activity calls are given as the source filed them. Calls follow the shape of the dose curve; as a rule, active = well fitted inhibition curve with a large enough effect; inconclusive = small, poorly fitted or top-dose-only effect; inactive = flat fitted curve, though single readings scatter.
Your answer must be one of the following: active, inactive

>>> class_name("CO/N=C(\\C(=O)N[C@@H]1C(=O)N2C(C(=O)[O-])=C(C[n+]3cccc4c3CCC4)CS[C@H]12)c1csc(N)n1")
"inactive"
>>> class_name("CCCC(=O)O")
"inactive"
>>> class_name("NC(=S)NS(=O)(=O)c1ccc(N)cc1")
"inactive"
>>> class_name("O=C(O)/C=C/c1ccccc1")
"inactive"
>>> class_name("NCC[C@H](O)C(=O)N[C@@H]1C[C@H](N)[C@@H](O[C@H]2O[C@H](CN)[C@@H](O)[C@H](O)[C@H]2O)[C@H](O)[C@H]1O[C@H]1O[C@H](CO)[C@@H](O)[C@H](N)[C@H]1O")
"inactive"

Lab log entry: CC(C)(COP(=O)(O)OP(=O)(O)OC[C@H]1O[C@@H](n2cnc3c(N)ncnc32)[C@H](O)[C@@H]1OP(=O)(O)O)C(O)C(=O)NCCC(=O)NCCS (stereo partly specified) — outcome as called in the assay? inactive

Lab log entry: `CCCc1nc(C(C)(C)O)c(C(=O)OCc2oc(=O)oc2C)n1Cc1ccc(-c2ccccc2-c2nn[nH]n2)cc1` — outcome as called in the assay? inactive

Lab log entry: `COc1ccc(/C=N/NC(=O)c2ccncc2)c(C(=O)O)c1OC` — outcome as called in the assay? inactive

Lab log entry: `CCOC(=S)SSC(=S)OCC` — outcome as called in the assay? inactive

Lab log entry: `c1ccc2ccccc2c1` — outcome as called in the assay? inactive

Lab log entry: `CCCc1ccc(C(=O)O)cc1` — outcome as called in the assay? inactive

Lab log entry: `CC(C)OC(=O)Nc1ccc2nc(-c3cscn3)[nH]c2c1` — outcome as called in the assay? inactive

Lab log entry: `CCc1ncnc2cc(OC)c(OC)cc12` — outcome as called in the assay? inactive

Lab log entry: `O=C(O)CCC(=O)c1ccc(-c2ccccc2)cc1` — outcome as called in the assay? inactive

Lab log entry: `COC(=O)CC[C@H](N)C(=O)O` — outcome as called in the assay? inactive

Lab log entry: CCC(C)[C@@H](N)C(=O)O (stereo partly specified) — outcome as called in the assay? inactive

---

System: CP201
Test: qHTS profiling for inhibitors of Plasmodium falciparum proliferation (AID 504749); also: nearly all actives have a fitted effect of over 60% in size
Settings: P. falciparum in erythrocytes, SYBR Green DNA, 72 h; series mostly up to 28.7 µM
Inconclusive results are not listed. Calls of active or inactive are those of the source. Calls come from the whole dose curve; as a rule, active = well fitted inhibition curve with a large enough effect; inconclusive = small, poorly fitted or top-dose-only effect; inactive = flat fitted curve, though single readings scatter.
result-type: outcome

>>> measurement("CCCc1nc(C(C)(C)O)c(C(=O)OCc2oc(=O)oc2C)n1Cc1ccc(-c2ccccc2-c2nn[nH]n2)cc1")
"inactive"
>>> measurement("C=CCN1CCCC1CNC(=O)c1cc(S(N)(=O)=O)cc(OC)c1OC (stereo unspecified)")
"inactive"
>>> measurement("CO/N=C(\\C(=O)N[C@@H]1C(=O)N2C(C(=O)[O-])=C(C[n+]3cccc4c3CCC4)CS[C@H]12)c1csc(N)n1")
"inactive"
>>> measurement("CCCCC/C=C\\C/C=C\\C/C=C\\CCCCC(=O)O")
"inactive"
>>> measurement("Cc1nc(NS(=O)(=O)c2ccc(N)cc2)nc(C)c1Br")
"inactive"

Count: 3. Required value per item: outcome.
1. Nc1ncnc2c1ncn2CCOCP(=O)(O)O
2. CC/C=C\C/C=C\C/C=C\CCCCCCCC(=O)O
3. CCCc1ccc(C(=O)O)cc1

1. inactive
2. inactive
3. inactive

---

Tested on: CP201
Experiment: qHTS profiling for inhibitors of Plasmodium falciparum proliferation (AID 504749); also: nearly all actives have a fitted effect of over 60% in size
Conditions: P. falciparum in erythrocytes, SYBR Green DNA, 72 h; series mostly up to 28.7 µM
Results filed as inconclusive are left out. Activity calls are given as the source filed them. Calls follow the shape of the dose curve; as a rule, active = well fitted inhibition curve with a large enough effect; inconclusive = small, poorly fitted or top-dose-only effect; inactive = flat fitted curve, though single readings scatter.
result-type: outcome

>>> measurement("C[C@H](CCCC(C)(C)O)[C@H]1CC[C@H]2[C@@H]3CC=C4C[C@@H](O)CC[C@]4(C)[C@H]3CC[C@]12C")
"inactive"
>>> measurement("OC[C@H]1O[C@@H]2O[C@H]3[C@H](O)[C@@H](O)[C@@H](O[C@H]4[C@H](O)[C@@H](O)[C@@H](O[C@H]5[C@H](O)[C@@H](O)[C@@H](O[C@H]6[C@H](O)[C@@H](O)[C@@H](O[C@H]7[C@H](O)[C@@H](O)[C@@H](O[C@H]1[C@H](O)[C@H]2O)O[C@@H]7CO)O[C@@H]6CO)O[C@@H]5CO)O[C@@H]4CO)O[C@@H]3CO")
"inactive"

---

System: CP286
Test: qHTS profiling for inhibitors of Plasmodium falciparum proliferation (AID 504749); also: nearly all actives have a fitted effect of over 60% in size
Settings: P. falciparum in erythrocytes, SYBR Green DNA, 72 h; series mostly up to 28.7 µM
Inconclusive results are not listed. The source made the active and inactive calls. The call rests on the fitted dose curve; in most records, active means well fitted inhibition curve with a large enough effect; inconclusive means small, poorly fitted or top-dose-only effect; inactive means flat fitted curve, though single readings scatter.
Your answer must be one of the following: 1 (yes) for active, 0 (no) for inactive

# example entries with known answers
>>> class_name("OC[C@H]1O[C@@](CO)(O[C@H]2O[C@H](CO)[C@@H](O)[C@H](O)[C@H]2O)[C@@H](O)[C@@H]1O")
"0 (no)"
>>> class_name("COc1ccc2nc(NC(=O)Nc3ccccc3)sc2c1")
"0 (no)"
>>> class_name("CC1CC(O)CC(C)(C)C1 (stereo unspecified)")
"0 (no)"
>>> class_name("CN1CCC(OC(=O)C(Oc2ccc(Cl)cc2)Oc2ccc(Cl)cc2)CC1")
"0 (no)"

Lab log entry: `Cc1ccccn1` — outcome as called in the assay? 0 (no)

Lab log entry: `NC(=O)CC[C@@H]1NC(=O)[C@H](Cc2ccccc2)NC(=O)[C@H](Cc2ccc(O)cc2)NC(=O)[C@@H](N)CSSC[C@@H](C(=O)N2CCC[C@H]2C(=O)N[C@@H](CCCN=C(N)N)C(=O)NCC(N)=O)NC(=O)[C@H](CC(N)=O)NC1=O` — outcome as called in the assay? 0 (no)

Lab log entry: `CCOC(=O)c1cc(-c2ccccc2)nc2ccc(C)cc12` — outcome as called in the assay? 0 (no)

---

Kindly state activity, negative = cell killing for each of the entries shown.
Test: Drug repurposing screens with cells derived from glioblastoma tumor samples (AID 1345199); also: % is scaled to controls: 0 for no effect and ±100 for the full control effect; nearly all actives have a fitted effect of over 40% in size
Conditions: GBM patient neurospheres viability, ATP luminescence, 48 h; at 45.9 µM (top of the series); tumour line D
Inconclusive results are not listed.
Numbers only, in %.

Look over these answered cases.
>>> measurement("CC[C@H](C)[C@@H]1NC(=O)[C@H](Cc2ccc(O)cc2)NC(=O)[C@@H](N)CSSC[C@@H](C(=O)N2CCC[C@H]2C(=O)N[C@@H](CC(C)C)C(=O)NCC(N)=O)NC(=O)[C@H](CC(N)=O)NC(=O)[C@H](CCC(N)=O)NC1=O")
-1.96
>>> measurement("C[N+]1(C)[C@@H]2CC(OC(=O)C(O)(c3cccs3)c3cccs3)C[C@H]1[C@@H]1O[C@@H]12 (stereo partly drawn)")
0.442

Please report the measured activity, negative = cell killing for CN(CCO)CC(O)Cn1cnc2c1c(=O)n(C)c(=O)n2C (stereo not drawn) (tested in a mixture with another compound) -10.7

---

Test system: ICS
Test: qHTS profiling for inhibitors of Plasmodium falciparum proliferation (AID 504749); also: nearly all actives have a fitted effect of over 60% in size; also: potency is read from the fitted curve at half-maximal effect
Conditions: P. falciparum in erythrocytes, SYBR Green DNA, 72 h; series mostly up to 28.7 µM
Inconclusive results are not listed. The source made the active and inactive calls. Calls follow the shape of the dose curve; as a rule, active = well fitted inhibition curve with a large enough effect; inconclusive = small, poorly fitted or top-dose-only effect; inactive = flat fitted curve, though single readings scatter.
result-type: Potency

Look over these answered cases.
>>> measurement("S=C=Nc1ccc(N=C=S)cc1")
"inactive"
>>> measurement("Cc1ncc(C[n+]2csc(CCO)c2C)c(N)n1")
"inactive"
>>> measurement("CN(C)c1ccc(C(=C2C=CC(=[N+](C)C)C=C2)c2c(O)c(S(=O)(=O)[O-])cc3cc(S(=O)(=O)O)ccc23)cc1")
"inactive"
>>> measurement("COc1ccc(C(=O)CCC(=O)O)c2ccccc12")
"inactive"
>>> measurement("CCN(CC)CCCC(C)Nc1cc(/C=C/c2ccccc2Cl)nc2cc(Cl)ccc12 (centres undefined)")
"0.398 µM (active)"
>>> measurement("CCCCO")
"inactive"
>>> measurement("CC(C)CCC[C@@H](C)[C@H]1CC[C@H]2[C@@H]3CC=C4C[C@@H](O)CC[C@]4(C)[C@H]3CC[C@]12C")
"inactive"
>>> measurement("COc1ccc2c(c1)OC(C)(C)C(c1ccccc1)C2c1ccc(OCCN2CCCC2)cc1 (centres undefined)")
"2.82 µM (active)"
>>> measurement("C=Cc1ccc(S(=O)(=O)O)cc1")
"inactive"
>>> measurement("COC1=C(OC)C(=O)C(C/C=C(\\C)CC/C=C(\\C)CC/C=C(\\C)CC/C=C(\\C)CC/C=C(\\C)CC/C=C(\\C)CC/C=C(\\C)CC/C=C(\\C)CC/C=C(\\C)CCC=C(C)C)=C(C)C1=O")
"inactive"

Count: 8. Required value per item: Potency.
1. O=C1CCC(=O)N1CO
2. OCCCNc1ccccc1
3. CN[C@@H]1[C@H](O[C@H]2[C@H](O[C@H]3[C@H](O)[C@@H](O)[C@H](N=C(N)N)[C@@H](O)[C@@H]3N=C(N)N)O[C@@H](C)[C@]2(O)C=O)O[C@@H](CO)[C@H](O)[C@H]1O
4. C=CCCCCCCCCC(=O)OC
5. CC(C)CCCC(C)NC(C)C (centres undefined)
6. Cc1cc(=O)c(C(=O)N[C@@H](C(=O)N[C@@H]2C(=O)N3C(C(=O)O)=C(CSc4nnnn4C)CS[C@H]23)c2ccc(O)cc2)c[nH]1
7. O=c1[nH]c(=O)n([C@H]2C[C@H](O)[C@@H](CO)O2)cc1/C=C/Br
8. C=CC[C@@H]1/C=C(\C)C[C@H](C)C[C@H](OC)[C@H]2O[C@@](O)(C(=O)C(=O)N3CCCC[C@H]3C(=O)O[C@H](/C(C)=C/[C@@H]3CC[C@@H](O)[C@H](OC)C3)[C@H](C)[C@@H](O)CC1=O)[C@H](C)C[C@@H]2OC

1: inactive; 2: inactive; 3: inactive; 4: inactive; 5: inactive; 6: inactive; 7: inactive; 8: 0.447 µM (active)

Please report the measured Potency for `Cc1ccc(S(=O)(=O)NCl)cc1` inactive
